Where do the numbers come from? From ChEMBL document CHEMBL2396560.

# targetSystem: Gamma-secretase
# assayProtocol: Inhibition of partially purified human gamma-secretase-mediated cleavage of MBP-APPc125Sw fusion protein measured after overnight incubation by ELISA
# Type: protein-complex assay
Measured IC50, listed per entry for reference.
The reply should read as a number followed by its unit.

Query "O=S(=O)(c1ccc(C(F)(F)F)cc1)N1c2ccccc2-c2n[nH]cc2[C@H]1C1CC1" yields IC50 of 0.18 nM

Query "C[C@@H]1c2c[nH]nc2-c2cc(F)c(F)cc2N1S(=O)(=O)c1ccc(C(F)(F)F)cc1" yields IC50 of 2.1 nM

Query "C[C@@H]1c2c[nH]nc2-c2cc(F)ccc2N1S(=O)(=O)c1ccc(F)cc1" yields IC50 of 1.3 nM

Others:
Query "O=S(=O)(c1ccc(F)cc1)N1c2cc(F)c(F)cc2-c2n[nH]cc2[C@H]1C1CC1" yields IC50 of 0.33 nM

Query "O=S(=O)(c1ccc(Cl)cc1)N1Cc2c[nH]nc2-c2ccc(F)cc21" yields IC50 of 38 nM

Query "CC(C)[C@@H]1c2c[nH]nc2-c2cc(F)c(F)cc2N1S(=O)(=O)c1ccc(C(F)(F)F)cc1" yields IC50 of 1.4 nM

Query "O=S(=O)(c1ccc(Cl)cc1)N1Cc2c[nH]nc2-c2ccccc21" yields IC50 of 327 nM

Query CC(C)[C@H](O)C(=O)N[C@@H](C)C(=O)N[C@@H]1C(=O)N(C)CCc2ccccc21 [SEMAGACESTAT] yields IC50 of 7.9 nM

Query "O=S(=O)(c1ccc(Cl)cc1)N1Cc2c[nH]nc2-c2cc(F)ccc21" yields IC50 of 22 nM

====

# assayProtocol: Plasma concentration in FVB mouse at 1 mg/kg, po at 3 hrs
# Type: ADME, organism-based
# Set-up: dose 1 mg/kg, route oral
endpoint: concentration at 3 h (nM)
Numeric only. Scale: nM

Query "O=S(=O)(c1ccc(C(F)(F)F)nc1)N1c2ccc(F)cc2-c2n[nH]cc2[C@H]1C1CC1" yields concentration at 3 h of 14

Please look at the following molecule next.
Query "O=S(=O)(c1ccc(C(F)(F)F)cc1)N1c2cc(F)c(F)cc2-c2n[nH]cc2[C@H]1C1CC1" yields concentration at 3 h of 31

====

# Test system: Liver
# assayProtocol: Glucuronidation metabolism in mouse liver microsomes assessed as compound remaining
# Format: ADME, Microsome
Measured Stability, listed per entry for reference.
Numeric only. Scale: %

Use these answered entries as a reference point.
Query "O=S(=O)(c1ccc(Cl)cc1)N1[C@H]2CCC[C@@H]1c1cn[nH]c1C2" yields Stability of 4

Query "O=S(=O)(c1ccc(C(F)(F)F)nc1)N1c2ccc(F)cc2-c2n[nH]cc2[C@H]1C1CC1" yields Stability of 90

Query "CC[C@H]1Cc2n[nH]cc2[C@@H](CC)N1S(=O)(=O)c1ccc(Cl)cc1" yields Stability of 11

Query "O=S(=O)(c1ccc(C(F)(F)F)cc1)N1c2cc(F)c(F)cc2-c2n[nH]cc2[C@H]1C1CC1" yields Stability of 88

Please look at the following compound next.
Query "CC(C)[C@H](O)C(=O)N[C@@H](C)C(=O)N[C@@H]1C(=O)N(C)CCc2ccccc21" yields Stability of 88

====

Measured Stability, listed per entry for reference.
# Test system: Liver
# assayProtocol: Oxidative metabolism in dog liver microsomes assessed as compound remaining
# Type: ADME, Canis lupus familiaris, Microsome
Numeric only. Scale: %

Use these answered entries as a reference point.
Query "CC(C)[C@@H]1c2c[nH]nc2-c2cc(F)c(F)cc2N1S(=O)(=O)c1ccc(C(F)(F)F)cc1" yields Stability of 17

Query "O=S(=O)(c1ccc(C(F)(F)F)cc1)N1c2cc(F)c(F)cc2-c2n[nH]cc2[C@H]1C1CC1" yields Stability of 75

Query "O=S(=O)(c1ccc(C(F)(F)F)cc1)N1c2ccc(F)cc2-c2n[nH]cc2[C@H]1C1CC1" yields Stability of 80

Query "C[C@@H]1c2c[nH]nc2-c2cc(F)ccc2N1S(=O)(=O)c1ccc(Cl)cc1" yields Stability of 40

Please look at the following molecule next.
Query O=S(=O)(N[C@H](CO)C(C(F)(F)F)C(F)(F)F)c1ccc(Cl)s1 [BEGACESTAT] yields Stability of 78

====

# Tested on: Liver
# assayProtocol: Glucuronidation metabolism in mouse liver microsomes assessed as compound remaining
# Assay type: ADME, Microsome
endpoint: Stability (%)
Numeric only. Scale: %

Bench note, Liver: entry "NC(=O)[C@@H](CCC(F)(F)F)N(Cc1ccc(-c2ncon2)cc1F)S(=O)(=O)c1ccc(Cl)cc1" , its Stability = 79

Bench note, Liver: entry "O=S(=O)(N[C@H](CO)C(C(F)(F)F)C(F)(F)F)c1ccc(Cl)s1" , its Stability = 36

Bench note, Liver: entry "C[C@@H]1c2c[nH]nc2-c2cc(F)ccc2N1S(=O)(=O)c1ccc(Cl)cc1" , its Stability = 91

Bench note, Liver: entry "CC(C)[C@@H]1c2c[nH]nc2-c2cc(F)c(F)cc2N1S(=O)(=O)c1ccc(C(F)(F)F)cc1" , its Stability = 95

Bench note, Liver: entry "C[C@@H]1c2c[nH]nc2-c2cc(F)ccc2N1S(=O)(=O)c1ccc(F)cc1" , its Stability = 84

Please look at the following compound next.
Bench note, Liver: entry "O=S(=O)(c1ccc(Cl)cc1)N1Cc2c[nH]nc2-c2ccc(F)cc21" , its Stability = 77

====

# Tested on: Liver microsomes
# assayProtocol: Glucuronidation metabolism in rat liver microsomes assessed as compound remaining
# Assay type: ADME, Microsome
Measured Stability, listed per entry for reference.
Numeric only. Scale: %

Use these answered entries as a reference point.
Query "O=S(=O)(c1ccc(Cl)cc1)N1Cc2c[nH]nc2-c2cc(F)ccc21" yields Stability of 91

Query "O=S(=O)(c1ccc(Cl)cc1)N1[C@H]2CCC[C@@H]1c1cn[nH]c1C2" yields Stability of 0

Query "O=S(=O)(c1ccc(Cl)cc1)N1Cc2c[nH]nc2-c2ccccc21" yields Stability of 93

Query "C[C@@H]1c2c[nH]nc2-c2cc(F)ccc2N1S(=O)(=O)c1ccc(F)cc1" yields Stability of 82

Query "CC(C)[C@@H]1c2c[nH]nc2-c2cc(F)c(F)cc2N1S(=O)(=O)c1ccc(C(F)(F)F)cc1" yields Stability of 93

Others:
Query "C[C@@H]1c2c[nH]nc2-c2cc(F)ccc2N1S(=O)(=O)c1ccc(Cl)cc1" yields Stability of 92

Query "CC(C)[C@H](O)C(=O)N[C@@H](C)C(=O)N[C@@H]1C(=O)N(C)CCc2ccccc21" yields Stability of 92

Query "O=S(=O)(c1ccc(C(F)(F)F)cc1)N1c2cc(F)c(F)cc2-c2n[nH]cc2[C@H]1C1CC1" yields Stability of 90

====

# Tested on: Liver microsomes
# assayProtocol: Oxidative metabolism in rat liver microsomes assessed as compound remaining
# Type: ADME, Microsome
Measured Stability, listed per entry for reference.
Numeric only. Scale: %

Query "O=S(=O)(c1ccc(C(F)(F)F)nc1)N1c2ccc(F)cc2-c2n[nH]cc2[C@H]1C1CC1" yields Stability of 81

Query "CC(C)[C@@H]1c2c[nH]nc2-c2cc(F)c(F)cc2N1S(=O)(=O)c1ccc(C(F)(F)F)cc1" yields Stability of 12

Query "CC(C)[C@H](O)C(=O)N[C@@H](C)C(=O)N[C@@H]1C(=O)N(C)CCc2ccccc21" yields Stability of 87

Query "O=S(=O)(c1ccc(Cl)cc1)N1[C@H]2CCC[C@@H]1c1cn[nH]c1C2" yields Stability of 5

Query "NC(=O)[C@@H](CCC(F)(F)F)N(Cc1ccc(-c2ncon2)cc1F)S(=O)(=O)c1ccc(Cl)cc1" yields Stability of 2

Others:
Query "O=S(=O)(c1ccc(C(F)(F)F)cc1)N1c2cc(F)c(F)cc2-c2n[nH]cc2[C@H]1C1CC1" yields Stability of 66

Query "O=S(=O)(c1ccc(C(F)(F)F)cc1)N1c2ccc(F)cc2-c2n[nH]cc2[C@H]1C1CC1" yields Stability of 59

Query "O=S(=O)(c1ccc(Cl)cc1)N1Cc2c[nH]nc2-c2ccccc21" yields Stability of 0

====

# assayProtocol: Plasma concentration in FVB mouse at 10 mg/kg, po at 3 hrs
# Assay type: ADME, organism-based
# Parameters: dose 10 mg/kg, route oral
endpoint: concentration at 3 h (nM)
Numeric only. Scale: nM

Query "O=S(=O)(c1ccc(C(F)(F)F)cc1)N1c2cc(F)c(F)cc2-c2n[nH]cc2[C@H]1C1CC1" yields concentration at 3 h of 900

Query "O=S(=O)(c1ccc(C(F)(F)F)nc1)N1c2ccc(F)cc2-c2n[nH]cc2[C@H]1C1CC1" yields concentration at 3 h of 1200

====

# Test system: Liver
# assayProtocol: Glucuronidation metabolism in dog liver microsomes assessed as compound remaining
# Type: ADME, Canis lupus familiaris, Microsome
endpoint: Stability (%)
Numeric only. Scale: %

Use these answered entries as a reference point.
Bench note, Liver: entry "CC(C)[C@@H]1c2c[nH]nc2-c2cc(F)c(F)cc2N1S(=O)(=O)c1ccc(C(F)(F)F)cc1" , its Stability = 87

Bench note, Liver: entry "O=S(=O)(c1ccc(C(F)(F)F)cc1)N1c2ccccc2-c2n[nH]cc2[C@H]1C1CC1" , its Stability = 99

Bench note, Liver: entry "O=S(=O)(c1ccc(Cl)cc1)N1[C@H]2CCC[C@@H]1c1cn[nH]c1C2" , its Stability = 100

Bench note, Liver: entry "O=S(=O)(c1ccc(C(F)(F)F)cc1)N1c2ccc(F)cc2-c2n[nH]cc2[C@H]1C1CC1" , its Stability = 88

Bench note, Liver: entry "C[C@@H]1c2c[nH]nc2-c2cc(F)ccc2N1S(=O)(=O)c1ccc(F)cc1" , its Stability = 84

Bench note, Liver: entry "C[C@@H]1c2c[nH]nc2-c2cc(F)ccc2N1S(=O)(=O)c1ccc(Cl)cc1" , its Stability = 97

Others:
Bench note, Liver: entry "CC(C)[C@H](O)C(=O)N[C@@H](C)C(=O)N[C@@H]1C(=O)N(C)CCc2ccccc21" , its Stability = 96

Bench note, Liver: entry "CC[C@H]1Cc2n[nH]cc2[C@@H](CC)N1S(=O)(=O)c1ccc(Cl)cc1" , its Stability = 38

Bench note, Liver: entry "O=S(=O)(c1ccc(Cl)cc1)N1Cc2c[nH]nc2-c2ccccc21" , its Stability = 89

Bench note, Liver: entry "O=S(=O)(c1ccc(C(F)(F)F)nc1)N1c2ccc(F)cc2-c2n[nH]cc2[C@H]1C1CC1" , its Stability = 87

Bench note, Liver: entry "NC(=O)[C@@H](CCC(F)(F)F)N(Cc1ccc(-c2ncon2)cc1F)S(=O)(=O)c1ccc(Cl)cc1" , its Stability = 100

Bench note, Liver: entry "O=S(=O)(c1ccc(C(F)(F)F)cc1)N1c2cc(F)c(F)cc2-c2n[nH]cc2[C@H]1C1CC1" , its Stability = 90

Bench note, Liver: entry "C[C@@H]1c2c[nH]nc2-c2cc(F)c(F)cc2N1S(=O)(=O)c1ccc(C(F)(F)F)cc1" , its Stability = 83

Bench note, Liver: entry "O=S(=O)(c1ccc(F)cc1)N1c2cc(F)c(F)cc2-c2n[nH]cc2[C@H]1C1CC1" , its Stability = 89

Bench note, Liver: entry "O=S(=O)(c1ccc(Cl)cc1)N1Cc2c[nH]nc2-c2ccc(F)cc21" , its Stability = 83

Bench note, Liver: entry "O=S(=O)(c1ccc(Cl)cc1)N1Cc2c[nH]nc2-c2cc(F)ccc21" , its Stability = 86

Bench note, Liver: entry "O=S(=O)(N[C@H](CO)C(C(F)(F)F)C(F)(F)F)c1ccc(Cl)s1" , its Stability = 0
